Test: Cytotoxicity against human HCT15 cells after 48 hrs by CCK8 assay
Format: functional, cell-based
Conditions: HCT-15, 48 h
Where a name gives a salt, the structure may show the parent alone.
Measured IC50 accompanies every entry in the list below.
Reported Metric: IC50 (µM)

[[record]]
molecule = "CC[C@@]1(O)C(=O)OCc2c1cc1n(c2=O)Cc2cc3ccccc3nc2-1 [CAMPTOTHECIN]"
reported_metric = "IC50"
quantitative_readout = 2.82

[[record]]
molecule = "COc1cccc2c1C(=O)c1c(O)c3c(c(O)c1C2=O)C[C@@](O)(C(=O)CO)C[C@@H]3O[C@H]1C[C@H](N)[C@H](O)[C@H](C)O1 [DOXORUBICIN HYDROCHLORIDE]"
reported_metric = "IC50"
quantitative_readout = 1.23

[[record]]
molecule = "COc1cc([C@@H]2c3cc4c(cc3[C@@H](O[C@@H]3O[C@@H]5CO[C@@H](C)O[C@H]5[C@H](O)[C@H]3O)[C@H]3COC(=O)[C@H]23)OCO4)cc(OC)c1O [ETOPOSIDE]"
reported_metric = "IC50"
quantitative_readout = 18.9

